- Test summary: chemical genetic growth profiling, strain panel (AID 1159580);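 further: tested at 20 µM; growth read once vehicle control cultures reached saturation at 30 °C; 1 = growth at the plate median or of vehicle wells; lower values mean less growth of the strain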
- Assay context: S. cerevisiae deletion strains, growth OD, locus YMR223W, strain ubp8, active compounds read low
The campaign covered roughly 5,500 compounds. About 2,000 (36%) were called active. About 18% were inconclusive and are not listed. Some of the results follow. Where a SMILES comes first, the peptide text is derived from it. The star is where a group is joined. For = O=C*
Measured normalized growth by item

Cc1cc(C(C)(C)C)c(O)c(C(C)(C)C)c1 | 0.958 (inactive)
Cc1cn([C@H]2C[C@H](N=[N+]=[N-])[C@@H](CO)O2)c(=O)[nH]c1=O | 1 (inactive)
CNC(=O)O/N=C\C(C)(C)SC | 0.995 (inactive)
O=c1cc(CO)occ1O | 1.06 (inactive)
C#C[C@]1(O)CCC2C3CCC4=CC(=O)CC[C@@H]4C3CC[C@@]21C (stereo partly drawn) | 0.971 (inactive)

So what's the measured normalized growth for this one? CCCOc1ccccc1-c1nc2n[nH]nc2c(=O)[nH]1 1.01 (inactive)

Cool, now CSCCC(NC=O)C(=O)NC(Cc1ccccc1)C(=O)O (stereo not drawn) (For-Met-Phe-OH; configuration not given here) 1.02 (inactive)

Cool, now NC12CC3CC(CC(C3)C1)C2 1.02 (inactive)

* * *

Measured normalized growth by item
- Test summary: chemical genetic growth profiling, strain panel (AID 1159580);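 further: tested at 20 µM; growth read once vehicle control cultures reached saturation at 30 °C; 1 = growth at the plate median or of vehicle wells; lower values mean less growth of the strain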
- Assay context: S. cerevisiae deletion strains, growth OD, locus YGR040W, strain KSS1, active compounds read low
The campaign covered roughly 5,500 compounds. About 2,000 (36%) were called active. Roughly 18% stayed inconclusive and do not appear here. The list shows a part of the results.
Form field (numeric): enter value without unit.

S=C(NNC(=S)NC1CC2C=CC1C2)Nc1ccc(Br)c(Cl)c1 (stereo not drawn) | 0.939
O=C(Nc1ccc(Cl)cc1)SCc1c(Cl)cccc1Cl | 0.808

Turning now to a further compound:
So what's the measured normalized growth for this one? COc1cccc(NC(=S)NC2CC(C)CC(C)(C)C2)c1 (stereo not drawn) 0.979

* * *

- Test summary: chemical genetic growth profiling, strain panel (AID 1159580);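 further: tested at 20 µM; growth read once vehicle control cultures reached saturation at 30 °C; 1 = growth at the plate median or of vehicle wells; lower values mean less growth of the strain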
- Assay context: S. cerevisiae deletion strains, growth OD, locus YFR010W, strain ubp6, active compounds read low
Screen size: about 5,500 compounds; about 2,000 (36%) were called active. Another 18% or so got no clear call; they are omitted. Some of the results follow.
Measured normalized growth by item
Form field (numeric): enter value without unit.

Sample answers from the record:
CCN1C[C@]2(OC(=O)c3ccccc3NC(C)=O)CCC(OC)[C@]34C1[C@H](CC23)[C@@]1(O)CC(OC)[C@H]2CC4C1(O)[C@H]2OC (stereo not given in full) | 0.975
Cc1cn([C@H]2C[C@H](N=[N+]=[N-])[C@@H](CO)O2)c(=O)[nH]c1=O | 1.01
Cc1cc(-n2c(=O)[nH]c(=O)n(C)c2=O)ccc1Oc1ccc(SC(F)(F)F)cc1 | 0.76
COc1c(-c2coc3cc4c(cc3c2=O)CC(OC(C)=O)C(C)(C)O4)ccc2c1C=CC(C)(C)O2 (stereo not given) | 1.03
C[C@@H]1CC[C@H]2[C@@H](C)C(O)O[C@@H]3O[C@@]4(C)CC[C@@H]1[C@]32OO4 (stereo not given in full) | 0.391
Cc1cc(O)cc(=O)o1 | 0.982

So what's the measured normalized growth for this one? OC(CCN1CCCCC1)(c1ccccc1)C1CC2C=CC1C2 (stereo not given) 0.966

Cool, now OC(CCN1CCCCC1)(c1ccccc1)C1CCCCC1 (stereo not given) 0.975

Cool, now Nc1ccc(S(=O)(=O)Nc2ccnn2-c2ccccc2)cc1 0.986

Cool, now OC(CCN1CCCC1)(c1ccccc1)C1CCCCC1 (stereo not given) 0.976
